These data points were gathered from PubChem BioAssay (NCATS).

System: CRL-7250
TEST NAME: qHTS assay to identify novel small-molecules to repurpose for Merkel cell carcinoma treatment (AID 1296009); note: nearly all actives have a fitted effect of over 60% in size
CONDITION SET: MCC and control cell lines, CellTiter-Glo viability, 72 h; series mostly up to 92 µM
Results filed as inconclusive are left out. Calls of active or inactive are those of the source. Calls come from the whole dose curve; as a rule, active = well fitted inhibition curve with a large enough effect; inconclusive = small, poorly fitted or top-dose-only effect; inactive = flat fitted curve, though single readings scatter.
MEASURED QUANTITY: outcome

{"COMPOUND": "COc1cc(C[C@H]2COC(=O)[C@@H]2Cc2ccc(O)c(OC)c2)ccc1O", "RESULT": "inactive"}
{"COMPOUND": "CC(=O)O[C@@H]1CC2C(C)(C)C(=O)C=C[C@]2(C)C2CC[C@@]3(C)[C@H](c4ccoc4)OC(=O)[C@H]4O[C@]43[C@@]21C (stereo partly drawn)", "RESULT": "inactive"}
{"COMPOUND": "COc1cc([C@H]2OC[C@]3(OC(C)=O)[C@@H](c4ccc(O[C@@H]5O[C@H](CO)[C@@H](O)[C@H](O)[C@H]5O)c(OC)c4)OC[C@H]23)ccc1O", "RESULT": "inactive"}
{"COMPOUND": "CCCCc1ccc(NS(=O)(=O)c2ccc(F)cc2)cc1", "RESULT": "inactive"}
{"COMPOUND": "CC(=O)NC(CCC(=O)O)C(=O)NCCc1ccc(O)cc1 (stereo not drawn)", "RESULT": "inactive"}
{"COMPOUND": "O=C(Nc1ccc(-c2ccc(Cl)c(Cl)c2)cc1)C1=C(O)c2ccccc2S(=O)(=O)N1", "RESULT": "inactive"}
{"COMPOUND": "C[C@@H]1O[C@@H](OC[C@H]2O[C@@H](OCc3ccccc3)[C@H](O)[C@@H](O)[C@@H]2O)[C@H](O)[C@H](O)[C@H]1O", "RESULT": "inactive"}
